B1: FOXJ1 (parent)
chain: SAIYKWITDNFCYFRHADPTWQNS

variants of: B1; experiment: protein stability index of a GFP-peptide fusion (GPS, HEK-293T) (PSI 1-6); higher = more stable; details: c terminus: a fixed tail appended;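 also: lentivirally expressed fusions sorted by FACS into six bins by GFP to DsRed ratio, PSI derived from sequencing read proportions per bin multiplied by bin number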
observed.property: protein stability index
The response must contain the number and no unit.

Here is how some variants turned out for protein stability index.
Param item = "D9H" ; retrieve measured protein stability index.
4.47

What measured protein stability index goes with "W21V" ?
3.94

Value lookup for protein stability index; key = "S1N"
2.5

Continuing:
Can you share its protein stability index? I mean this variant: "F14R"
1.75

I would be grateful if you could share the reported protein stability index for "W6C" .
2.1

protein stability index lookup needed for "Y4T" , thanks.
1.52

# lookup: protein stability index of "W6R"
1.86

Could you share which protein stability index value was measured for "H16P" ?
3.62

Entry "S1I" has what protein stability index?
4.71
